# System: RBCs
# ASSAY_NAME: Hemolytic activity as a measure of cytotoxicity against human red blood cells at 350 uM
# Assay type: functional, Erythrocyte
TEST_READOUT: Activity
Give your result as the value with the unit written after it.

Worked cases, Activity given:
COMPOUND	VALUE_OBSERVED
CCCCC[N+](CCCCC)(CCCCC)CCCCCCCCCCCC[N+](CCCCC)(CCCCC)CCCCC.[Br-].[Br-]	100%
CCCC[P+](CCCC)(CCCC)CCCCCCCCCCCC[P+](CCCC)(CCCC)CCCC.[Br-].[Br-]	15%
CCCC[N+]1(CCCCCCCCCCCC[N+]2(CCCC)CCCC2)CCCC1.[Cl-].[Cl-]	0%
C[N+](C)(C)CCCCCCCCCCCC[N+](C)(C)C.[Br-].[Br-]	0%

# lookup: RBCs Activity, key = C[N+](C)(C)CCCCCCCCCC[N+](C)(C)C.[Br-].[Br-] [DECAMETHONIUM BROMIDE] 0%

# lookup: RBCs Activity, key = `CC(C)CC[N+](CCCCCCCCCCCC[N+](CCC(C)C)(CCC(C)C)CCC(C)C)(CCC(C)C)CCC(C)C.[Cl-].[Cl-]` 100%

# lookup: RBCs Activity, key = `CCCC[N+](CCCC)(CCCC)CCCCCCCCCCCC[N+](CCCC)(CCCC)CCCC.[Cl-].[Cl-]` 100%
